From: ChEMBL document CHEMBL3751694

# System: HT-29
# measurementNotes: Growth inhibition of human HT-29 cells at 10 uM after 48 hrs by SRB method
# Type: functional
# runConditions: HT-29, 48 h, read-out: GI
measuredEndpoint: inhibition of growth at 10 µM (%)
Answers are plain numbers, in %.

Cc1nc(NC(=O)CN2CCN(c3nnc(-c4ccccc4)c4ccccc34)CC2)sc1C(=O)Nc1ccccc1: 66

// each listed molecule needs a value for inhibition of growth at 10 µM
1. CCOC(=O)c1sc(NC(=O)CN2CCN(c3nnc(-c4ccccc4)c4ccccc34)CC2)nc1C
2. CC(=O)c1sc(NC(=O)CN2CCN(c3nnc(-c4ccccc4)c4ccccc34)CC2)nc1C
3. O=C(CN1CCN(c2nnc(-c3ccccc3)c3ccccc23)CC1)Nc1nc(-c2ccc(Cl)cc2)cs1
4. O=C(CN1CCN(c2nnc(-c3ccccc3)c3ccccc23)CC1)Nc1nc(-c2ccccc2)cs1
5. CCOC(=O)c1ccc(NC(=O)CN2CCN(c3nnc(-c4ccccc4)c4ccccc34)CC2)cc1

Result:
1: 50; 2: 31; 3: 32; 4: 34; 5: 88
